Please consider the recorded IC50 for Cytochrome P450 3A4 (Homo sapiens) in what follows.

Asked: Fill blank: measured IC50 of the compound C[C@@]1(O)CC[C@H]2[C@H](CC[C@@H]3[C@@H]2CC[C@]2(C)[C@@H](C(=O)Cn4cc(C#N)cn4)CC[C@@H]32)C1 [ZURANOLONE] is ____.
Given back: > 30 µM

Asked: # input compound: C[C@@]1(O)CC[C@H]2[C@H](CC[C@@H]3[C@@H]2CC[C@]2(C)[C@@H](C(=O)Cn4cnn(-c5cc(F)nc(F)c5)c4=O)CC[C@@H]32)C1 ; wanted: its IC50
Given back: > 30 µM

---

- Subject of test: GABA-A receptor; alpha-1/beta-2/gamma-2 (Homo sapiens, UniProt P14867+P18507+P47870)
- Sequence (P14867 whole entry): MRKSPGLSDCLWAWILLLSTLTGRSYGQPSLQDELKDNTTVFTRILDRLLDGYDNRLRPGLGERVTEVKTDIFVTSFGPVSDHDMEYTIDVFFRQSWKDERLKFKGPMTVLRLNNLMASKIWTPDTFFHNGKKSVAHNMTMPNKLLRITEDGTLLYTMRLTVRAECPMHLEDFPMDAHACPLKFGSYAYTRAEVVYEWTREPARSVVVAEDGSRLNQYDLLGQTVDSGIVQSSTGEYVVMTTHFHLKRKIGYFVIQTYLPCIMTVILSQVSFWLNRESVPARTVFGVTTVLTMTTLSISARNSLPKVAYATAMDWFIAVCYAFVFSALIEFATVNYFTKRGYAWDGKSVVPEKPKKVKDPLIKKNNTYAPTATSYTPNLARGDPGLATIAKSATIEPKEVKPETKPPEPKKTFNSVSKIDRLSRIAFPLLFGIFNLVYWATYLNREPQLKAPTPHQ
- Sequence (P47870 whole entry): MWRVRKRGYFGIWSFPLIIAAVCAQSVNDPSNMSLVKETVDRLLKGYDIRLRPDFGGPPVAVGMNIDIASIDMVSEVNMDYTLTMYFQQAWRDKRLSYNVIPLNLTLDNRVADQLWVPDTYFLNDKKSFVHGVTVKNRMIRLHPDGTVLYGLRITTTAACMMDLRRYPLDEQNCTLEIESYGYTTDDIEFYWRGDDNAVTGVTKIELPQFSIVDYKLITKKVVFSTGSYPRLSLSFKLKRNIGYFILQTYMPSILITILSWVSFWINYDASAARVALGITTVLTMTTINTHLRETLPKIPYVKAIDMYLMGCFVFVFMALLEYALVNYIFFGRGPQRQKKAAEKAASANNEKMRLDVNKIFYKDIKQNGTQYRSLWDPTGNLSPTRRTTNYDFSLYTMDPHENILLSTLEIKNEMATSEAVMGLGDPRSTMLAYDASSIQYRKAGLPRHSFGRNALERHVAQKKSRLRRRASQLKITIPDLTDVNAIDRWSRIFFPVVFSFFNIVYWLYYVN
- Sequence (P18507 whole entry): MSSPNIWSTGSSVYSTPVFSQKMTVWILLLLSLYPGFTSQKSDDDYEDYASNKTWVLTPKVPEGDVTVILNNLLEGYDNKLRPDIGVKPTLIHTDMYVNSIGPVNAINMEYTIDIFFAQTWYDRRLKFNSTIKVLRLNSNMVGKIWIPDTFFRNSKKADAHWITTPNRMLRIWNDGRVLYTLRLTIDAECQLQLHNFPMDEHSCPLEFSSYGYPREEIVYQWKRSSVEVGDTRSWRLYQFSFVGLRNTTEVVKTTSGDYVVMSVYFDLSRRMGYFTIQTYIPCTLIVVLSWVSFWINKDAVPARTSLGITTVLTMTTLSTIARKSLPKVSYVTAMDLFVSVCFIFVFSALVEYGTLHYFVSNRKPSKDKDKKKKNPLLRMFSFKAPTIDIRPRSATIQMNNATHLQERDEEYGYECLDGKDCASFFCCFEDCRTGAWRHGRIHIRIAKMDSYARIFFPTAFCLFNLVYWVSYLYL
- Experiment description: Positive allosteric modulation of synaptic alpha1beta2gamma2 GABA-A receptor (unknown origin) transfected in LTK cells assessed as potentiation of GABA-induced peak current amplitude at -80 mV holding potential preincubated for 30 secs followed by GABA stimulation for 2 secs by Q-patch assay
- Type: cell-based
EC50 values for the molecules below.

Below are worked cases with known answers.
C[C@@]1(O)CC[C@H]2[C@H](CC[C@@H]3[C@@H]2CC[C@]2(C)[C@@H](C(=O)Cn4cnn(-c5cc(F)cc(F)c5)c4=O)CC[C@@H]32)C1 : 154 nM
C[C@@]1(O)CC[C@H]2[C@H](CC[C@@H]3[C@@H]2CC[C@]2(C)[C@@H](C(=O)Cn4cnn(-c5ccc(F)cc5F)c4=O)CC[C@@H]32)C1 : 784 nM
C[C@@]1(O)CC[C@H]2[C@H](CC[C@@H]3[C@@H]2CC[C@]2(C)[C@@H](C(=O)Cn4nnn(-c5cccc(F)c5)c4=O)CC[C@@H]32)C1 : 37 nM
C[C@@]1(O)CC[C@H]2[C@H](CC[C@@H]3[C@@H]2CC[C@]2(C)[C@@H](C(=O)Cn4cnn(-c5ccccc5F)c4=O)CC[C@@H]32)C1 : 171 nM
C[C@@]1(O)CC[C@H]2[C@H](CC[C@@H]3[C@@H]2CC[C@]2(C)[C@@H](C(=O)Cn4ccn(-c5cccc(F)c5)c4=O)CC[C@@H]32)C1 : 241 nM

Asked: Given the entry C[C@@]1(O)CC[C@H]2[C@H](CC[C@@H]3[C@@H]2CC[C@]2(C)[C@@H](C(=O)Cn4cnn(C5CCCC5)c4=O)CC[C@@H]32)C1 , what EC50 was observed with GABA-A receptor; alpha-1/beta-2/gamma-2 (Homo sapiens, UniProt P14867+P18507+P47870)?
Given back: 192 nM

---

- Experiment description: Metabolic stability in Sprague-Dawley rat liver microsomes assessed as compound remaining at 1 uM preincubated for 10 mins followed by NADPH addition by LC-MS analysis
- Format: ADME, Microsome
- Experimental setup: read-out: Stability
Observed property: remaining at 1 µM

Take a look at these entries with their results.
C[C@@]1(O)CC[C@H]2[C@H](CC[C@@H]3[C@@H]2CC[C@]2(C)[C@@H](C(=O)Cn4cnn(-c5ccnc(F)c5)c4=O)CC[C@@H]32)C1 : 32.2%
C[C@@]1(O)CC[C@H]2[C@H](CC[C@@H]3[C@@H]2CC[C@]2(C)[C@@H](C(=O)Cn4cnn(-c5cc(F)nc(F)c5)c4=O)CC[C@@H]32)C1 : 68%
C[C@@]1(O)CC[C@H]2[C@H](CC[C@@H]3[C@@H]2CC[C@]2(C)[C@@H](C(=O)Cn4cnn(-c5cccc(F)c5)c4=O)CC[C@@H]32)C1 : 44.5%

Asked: Which remaining at 1 µM reading was recorded for the compound C[C@@]1(O)CC[C@H]2[C@H](CC[C@@H]3[C@@H]2CC[C@]2(C)[C@@H](C(=O)Cn4cc(C#N)cn4)CC[C@@H]32)C1 ?
Given back: 40%

Asked: Return reported remaining at 1 µM; argument: C[C@@]1(O)CC[C@H]2[C@H](CC[C@@H]3[C@@H]2CC[C@]2(C)[C@@H](C(=O)Cn4cnn(CC5CC5)c4=O)CC[C@@H]32)C1
Given back: 5.9%

Asked: Could you tell me which remaining at 1 µM is on file for C[C@@]1(O)CC[C@H]2[C@H](CC[C@@H]3[C@@H]2CC[C@]2(C)[C@@H](C(=O)Cn4nnn(-c5cccc(F)c5)c4=O)CC[C@@H]32)C1 ?
Given back: 15.6%

Asked: What remaining at 1 µM value was documented for this compound, COc1cccc(-n2ncn(CC(=O)[C@H]3CC[C@H]4[C@@H]5CC[C@@H]6C[C@](C)(O)CC[C@@H]6[C@H]5CC[C@]34C)c2=O)c1 ?
Given back: 14.2%

---

- Subject of test: GABA-A receptor; anion channel
- Experiment description: Inhibition of [35S]TBPS binding to GABA-A receptor in Sprague-Dawley rat brain cortical membrane incubated for 90 mins by liquid scintillation spectrometry
- Type: cell membranes, Cortex
Observed property: IC50 (nM)
Quick reminder: number only, in nM, skip the unit.

Worked examples follow.
C[C@@]1(O)CC[C@H]2[C@H](CC[C@@H]3[C@@H]2CC[C@]2(C)[C@@H](C(=O)Cn4cnn(-c5cccc(F)c5)c4=O)CC[C@@H]32)C1 : 1.2
C[C@@]1(O)CC[C@H]2[C@H](CC[C@@H]3[C@@H]2CC[C@]2(C)[C@@H](C(=O)Cn4ncn(-c5cccc(F)c5)c4=O)CC[C@@H]32)C1 : 1
C[C@@]1(O)CC[C@H]2[C@H](CC[C@@H]3[C@@H]2CC[C@]2(C)[C@@H](C(=O)Cn4nnn(-c5cccc(F)c5)c4=O)CC[C@@H]32)C1 : 1
C[C@@]1(O)CC[C@H]2[C@H](CC[C@@H]3[C@@H]2CC[C@]2(C)[C@@H](C(=O)Cn4ccn(-c5cccc(F)c5)c4=O)CC[C@@H]32)C1 : 1

In the following, a different molecule is considered.
Asked: Given the molecule C[C@@]1(O)CC[C@H]2[C@H](CC[C@@H]3[C@@H]2CC[C@]2(C)[C@@H](C(=O)Cn4cc(C#N)cn4)CC[C@@H]32)C1 [ZURANOLONE] , what is its reported IC50?
Given back: 7

---

EC50 by entry:
- Subject of test: GABA-A receptor; alpha-1/beta-2/gamma-2 (Homo sapiens, UniProt P14867+P18507+P47870)
- Experiment description: Positive allosteric modulation of synaptic alpha1beta2gamma2 GABA-A receptor (unknown origin) transfected in LTK cells assessed as potentiation of GABA-induced peak current amplitude at -80 mV holding potential preincubated for 30 secs followed by GABA stimulation for 2 secs by Q-patch assay
Report the figure in µM without appending any unit label.

Below, 5 compounds whose answers are already recorded.
C[C@@]1(O)CC[C@H]2[C@H](CC[C@@H]3[C@@H]2CC[C@]2(C)[C@@H](C(=O)Cn4cnn(-c5cccc(C#N)c5)c4=O)CC[C@@H]32)C1 : 0.112
C[C@@]1(O)CC[C@H]2[C@H](CC[C@@H]3[C@@H]2CC[C@]2(C)[C@@H](C(=O)Cn4cnn(-c5ccccc5)c4=O)CC[C@@H]32)C1 : 0.09
C[C@@]1(O)CC[C@H]2[C@H](CC[C@@H]3[C@@H]2CC[C@]2(C)[C@@H](C(=O)Cn4cnn(-c5cccc(F)c5F)c4=O)CC[C@@H]32)C1 : 0.126
C[C@@]1(O)CC[C@H]2[C@H](CC[C@@H]3[C@@H]2CC[C@]2(C)[C@@H](C(=O)Cn4cnn(-c5cccc(OC(F)(F)F)c5)c4=O)CC[C@@H]32)C1 : 0.182
C[C@@]1(O)CC[C@H]2[C@H](CC[C@@H]3[C@@H]2CC[C@]2(C)[C@@H](C(=O)Cn4cnn(-c5cccc(F)c5)c4=O)CC[C@@H]32)C1 : 0.056

Asked: Would you mind telling me what EC50 value was observed for C[C@@]1(O)CC[C@H]2[C@H](CC[C@@H]3[C@@H]2CC[C@]2(C)[C@@H](C(=O)Cn4cnn(-c5nccs5)c4=O)CC[C@@H]32)C1 ?
Given back: 0.33

Asked: Give its EC50 value. Item: C[C@@]1(O)CC[C@H]2[C@H](CC[C@@H]3[C@@H]2CC[C@]2(C)[C@@H](C(=O)Cn4cc(C#N)cn4)CC[C@@H]32)C1
Given back: 0.152

Asked: For C[C@@]1(O)CC[C@H]2[C@H](CC[C@@H]3[C@@H]2CC[C@]2(C)[C@@H](C(=O)Cn4cnn(-c5cccc(F)n5)c4=O)CC[C@@H]32)C1 , what is its reported EC50?
Given back: 0.368

Asked: Item under review: CCn1ncn(CC(=O)[C@H]2CC[C@H]3[C@@H]4CC[C@@H]5C[C@](C)(O)CC[C@@H]5[C@H]4CC[C@]23C)c1=O . Reported EC50?
Given back: 0.19

---

- Subject of test: Cytochrome P450 1A2 (Homo sapiens)
- Sequence (P05177 whole entry): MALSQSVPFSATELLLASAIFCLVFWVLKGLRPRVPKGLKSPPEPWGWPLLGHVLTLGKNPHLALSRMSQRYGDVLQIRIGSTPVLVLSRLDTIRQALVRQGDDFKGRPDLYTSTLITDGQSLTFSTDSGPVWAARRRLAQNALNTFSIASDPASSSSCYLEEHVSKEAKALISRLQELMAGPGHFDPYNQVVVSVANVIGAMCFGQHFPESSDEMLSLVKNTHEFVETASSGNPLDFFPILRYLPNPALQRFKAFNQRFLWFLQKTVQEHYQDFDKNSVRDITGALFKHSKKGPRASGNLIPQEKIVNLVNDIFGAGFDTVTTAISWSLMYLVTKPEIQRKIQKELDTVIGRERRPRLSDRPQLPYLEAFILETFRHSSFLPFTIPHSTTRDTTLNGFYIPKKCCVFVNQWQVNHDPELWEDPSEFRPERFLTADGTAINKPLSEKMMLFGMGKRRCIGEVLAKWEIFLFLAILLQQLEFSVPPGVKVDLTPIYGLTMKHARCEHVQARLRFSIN
- Experiment description: Inhibition of CYP1A2 (unknown origin)
- Type: ADME
pIC50: −log10 of the molar value.
Observed property: pIC50

C[C@@]1(O)CC[C@H]2[C@H](CC[C@@H]3[C@@H]2CC[C@]2(C)[C@@H](C(=O)Cn4cc(C#N)cn4)CC[C@@H]32)C1 [ZURANOLONE] : < 4.52

Asked: Form field: reported pIC50 of C[C@@]1(O)CC[C@H]2[C@H](CC[C@@H]3[C@@H]2CC[C@]2(C)[C@@H](C(=O)Cn4cnn(-c5cc(F)nc(F)c5)c4=O)CC[C@@H]32)C1
Given back: < 4.52
